Experiment: In vivo pharmacokinetic study in ICR mice
Details: mouse, IV 2 mg/kg, plasma, read-out: Maximal concentration Cmax
Description: Species: ICR mice, SPF grade. Source: Shanghai Xipuer-Bikai Laboratory Animal Co., Ltd. Number: 3 mice per dosage form. […] Weighing was performed before administration, and the administration amount was calculated according to the body weight. […] When plot the plasma concentration-time curve according to the detected plasma concentration of the test substance, BLQ (Beneath Limit of Quantification) was recorded as 0. […]
measurementKind: Cmax

| compound | measurementKind | reportedResult |
| --- | --- | --- |
| Nc1c(-c2ccc3nccnc3c2)c(=O)n(-c2ccc(Cl)cc2)c2nc(C(F)(F)F)ccc12 [Example 36] | Cmax | 3540 ng/mL |
